Molecular target: T1, human LAG3 expressed on cells (human, UniProt P18627 23-525)
T1 sequence (looked up): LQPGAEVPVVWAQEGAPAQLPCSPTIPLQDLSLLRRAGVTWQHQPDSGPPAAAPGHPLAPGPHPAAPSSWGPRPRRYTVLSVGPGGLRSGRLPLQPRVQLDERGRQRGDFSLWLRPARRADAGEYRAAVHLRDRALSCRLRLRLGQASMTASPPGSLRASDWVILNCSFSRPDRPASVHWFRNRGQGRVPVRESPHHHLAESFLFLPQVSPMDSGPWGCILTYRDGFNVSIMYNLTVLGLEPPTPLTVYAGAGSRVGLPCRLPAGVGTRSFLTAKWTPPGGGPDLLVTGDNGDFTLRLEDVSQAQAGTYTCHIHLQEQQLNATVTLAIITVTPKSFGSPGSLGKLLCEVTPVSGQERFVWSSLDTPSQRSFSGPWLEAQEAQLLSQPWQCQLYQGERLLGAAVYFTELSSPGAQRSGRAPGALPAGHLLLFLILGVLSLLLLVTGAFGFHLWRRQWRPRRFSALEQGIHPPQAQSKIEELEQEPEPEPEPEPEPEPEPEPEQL
Test: cell-based or functional assay
Response key: 1.0 means IL-2, % of BMS, at 0.005080526 ug/mL >= 6%; 0.0 means IL-2, % of BMS, at 0.005080526 ug/mL < 6%.

Query: Please tell me: is the binder sdAb No. 20 (VHH, Fc of the tested form not described; also called sdAb 20; not shown: Fc part implied by anti-human Fc capture) VHH: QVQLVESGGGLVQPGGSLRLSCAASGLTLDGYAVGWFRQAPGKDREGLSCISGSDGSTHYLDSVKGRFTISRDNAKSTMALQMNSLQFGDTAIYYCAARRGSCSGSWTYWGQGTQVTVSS at or over 6% in terms of IL-2, % of BMS, at 0.005080526 ug/mL?
Response: 1.0

Query: Threshold query (IL-2, % of BMS, at 0.005080526 ug/mL >= 6%) on sdAb No. 27 (VHH, Fc of the tested form not described; also called sdAb 27; not shown: Fc part implied by anti-human Fc capture and anti-human IgG Fc detection) VHH: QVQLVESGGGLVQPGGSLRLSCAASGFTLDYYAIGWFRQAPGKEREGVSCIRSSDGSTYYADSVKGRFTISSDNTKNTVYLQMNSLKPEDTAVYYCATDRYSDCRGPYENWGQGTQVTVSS
Response: 0.0

Query: Is IL-2, % of BMS, at 0.005080526 ug/mL at least 6%? Consider sdAb No. 73 (VHH, Fc not described; also called sdAb 73; not shown: Fc part implied by anti-human Fc capture) VHH: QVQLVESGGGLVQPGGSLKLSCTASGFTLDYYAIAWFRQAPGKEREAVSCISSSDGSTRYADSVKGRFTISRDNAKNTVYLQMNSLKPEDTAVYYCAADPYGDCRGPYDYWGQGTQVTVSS
Response: 0.0

Query: Would you say sdAb No. 18 (VHH, Fc of the tested form not described; also called sdAb 18; not shown: Fc part implied by anti-human Fc capture) VHH: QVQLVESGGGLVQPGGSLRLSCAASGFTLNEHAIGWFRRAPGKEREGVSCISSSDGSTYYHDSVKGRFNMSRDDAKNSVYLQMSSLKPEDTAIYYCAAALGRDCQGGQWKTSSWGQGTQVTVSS shows IL-2, % of BMS, at 0.005080526 ug/mL at minimum 6%?
Response: 1.0

Query: Does IL-2, % of BMS, at 0.005080526 ug/mL meet or surpass 6% for sdAb No. 25 (VHH, Fc of the tested form not described; also called sdAb 25; sdAb #25; not shown: Fc part implied by anti-human Fc capture and anti-human IgG Fc detection) VHH: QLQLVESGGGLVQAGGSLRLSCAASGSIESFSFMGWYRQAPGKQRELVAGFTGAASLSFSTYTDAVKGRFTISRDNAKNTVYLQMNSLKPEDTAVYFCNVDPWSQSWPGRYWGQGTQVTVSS ?
Response: 0.0

Query: // inclusive: IL-2, % of BMS, at 0.005080526 ug/mL at least 6%? input: sdAb No. 1 (VHH, the tested form was captured by anti-human Fc, its Fc is not described; also called sdAb 1; not shown: Fc part implied by anti-human Fc capture) VHH: QLQLVESGGGLVQAGGSLRLSCAASGFTFDDYAIGWFRQAPGKEREGVSCIRSSDGSTYYADSVKGRFTISSDNAKNTVYLQMNSLKPEDTAVYYCAKDNYSDCRGPYHYWGQGTQVTVSS
Response: 1.0
